# PQ (ECG) per entry
# System: normal ECG in rats
# Assay method text: The effect on normal electrocardiogram in rats
# Type: in vivo, rat
# Experimental setup: anesthetized rats, i.p. at ED84; 60 min
Your answer should be a plain number; it is taken to be in ms.

COc1ccccc1N1CCN(CCCOc2cc(C)ccc2Cl)CC1 [HBK-16]: 68.2
COc1ccccc1N1CCN(CCCOc2c(C)cc(C)cc2C)CC1 [HBK-18]: 59.6
COc1ccccc1N1CCN(CCOCCOc2c(C)cccc2Cl)CC1.Cl [HBK-15]: 48.0
COc1ccccc1N1CCN(CCOCCOc2c(C)cccc2C)CC1.Cl [HBK-14]: 48.4

Consider the record given below.
[Q] Check normal ECG in rats data and give PQ (ECG) for COc1ccccc1N1CCN(CCCOc2cc(C)cc(C)c2C)CC1 [HBK-19] .
[A] 56.3

* * *

# Test system: normal ECG in rats
# Assay method text: The effect on normal electrocardiogram in rats
# Assay type: in vivo, rat
# Experimental setup: anesthetized rats, i.p. at ED84; 15 min
Metric: QTc (ECG, Bazett)

Past entries and their recorded results:
COc1ccccc1N1CCN(CCOCCOc2c(C)cccc2C)CC1.Cl [HBK-14]: 212.9 ± 5.7 ms
COc1ccccc1N1CCN(CCOCCOc2c(C)cccc2Cl)CC1.Cl [HBK-15]: 207.1 ± 6.8 ms
COc1ccccc1N1CCN(CCCOc2cc(C)ccc2Cl)CC1 [HBK-16]: 115.8 ± 9.6 ms
COc1ccccc1N1CCN(CCCOc2cc(C)cc(C)c2C)CC1 [HBK-19]: 177.6 ± 4.4 ms

[Q] Please give the documented QTc (ECG, Bazett) of COc1ccccc1N1CCN(CCCOc2c(C)cc(C)cc2C)CC1 [HBK-18]
[A] 166.4 ± 14.5 ms

* * *

# Test system: normal ECG in rats
# Assay method text: The effect on normal electrocardiogram in rats
# Type: in vivo, rat
# Experimental setup: anesthetized rats, i.p. at ED84; 15 min
# Procedure: The experiment was carried out to exclude the influence of tested compounds on normal ECG. […] The influence on QRS complex, PQ interval, heart rate (RR), and QTc interval was determined.
Metric: PQ (ECG) (ms)
Answer format: numeric, ms implied, no suffix.

Known PQ (ECG) results, listed for orientation:
COc1ccccc1N1CCN(CCCOc2cc(C)cc(C)c2C)CC1: 58.2
COc1ccccc1N1CCN(CCOCCOc2c(C)cccc2Cl)CC1.Cl: 46.6
COc1ccccc1N1CCN(CCOCCOc2c(C)cccc2C)CC1.Cl: 47.5
COc1ccccc1N1CCN(CCCOc2cc(C)ccc2Cl)CC1: 63.9

Turning now to a further compound:
[Q] Specify measured PQ (ECG) for COc1ccccc1N1CCN(CCCOc2c(C)cc(C)cc2C)CC1 .
[A] 55.8

* * *

# Test system: normal ECG in rats
# Assay method text: The effect on normal electrocardiogram in rats
# Type: in vivo, rat
# Experimental setup: anesthetized rats, i.p. at ED84; 0 min (initial values)
# Procedure: The experiment was carried out to exclude the influence of tested compounds on normal ECG. […] The influence on QRS complex, PQ interval, heart rate (RR), and QTc interval was determined.
Metric: PQ (ECG) (ms)
Entry rule: numbers only, all in ms.

COc1ccccc1N1CCN(CCCOc2cc(C)ccc2Cl)CC1: 64.4

[Q] Read off the recorded PQ (ECG) for COc1ccccc1N1CCN(CCOCCOc2c(C)cccc2Cl)CC1.Cl
[A] 48.7

[Q] Give recorded PQ (ECG). COc1ccccc1N1CCN(CCCOc2cc(C)cc(C)c2C)CC1
[A] 56.7

[Q] Give the value of PQ (ECG) reported for the following: COc1ccccc1N1CCN(CCCOc2c(C)cc(C)cc2C)CC1
[A] 61.3

[Q] Quick one: give measured PQ (ECG) for COc1ccccc1N1CCN(CCOCCOc2c(C)cccc2C)CC1.Cl
[A] 47.1
